- Test system: PAMPA
- reported.conditions: Papp (x 10^-6 cm/s) – UV Detection / [row 6]; UV Detection
Entries and their Papp values follow.
Reply with a number, then the unit it belongs to.

For CCCCC[C@@H]1OC(=O)[C@@H](C)N(C)C(=O)[C@H](CCCCC)OC(=O)[C@@H](C)N(C)C1=O the compound record lists Papp as 4.49 ×10⁻⁶ cm/s

Sure, the documented Papp for CCCCC[C@@H]1OC(=O)[C@@H](C)N(C)C(=O)[C@H](CCCCC)OC(=O)[C@@H](C)N(C)C(=O)[C@H](CCCCC)OC(=O)[C@@H](C)N(C)C(=O)[C@H](CCCCC)OC(=O)[C@@H](C)N(C)C(=O)[C@H](CCCCC)OC(=O)[C@@H](C)N(C)C1=O is 3.54 ×10⁻⁶ cm/s

Papp reading for CCCCC[C@@H]1OC(=O)[C@@H](C)N(C)C(=O)[C@H](CCCCC)OC(=O)[C@@H](C)N(C)C(=O)[C@H](CCCCC)OC(=O)[C@@H](C)N(C)C(=O)[C@H](CCCCC)OC(=O)[C@@H](C)N(C)C1=O [Compound C1.4, ent-verticilide] : 7.11 ×10⁻⁶ cm/s

The compound CCCCC[C@@H]1OC(=O)[C@@H](C)N(C)C1=O showed Papp equal to 13.8 ×10⁻⁶ cm/s

Measured Papp, CCCCC[C@@H]1OC(=O)[C@@H](C)N(C)C(=O)[C@H](CCCCC)OC(=O)[C@@H](C)N(C)C(=O)[C@H](CCCCC)OC(=O)[C@@H](C)N(C)C(=O)[C@H](CCCCC)OC(=O)[C@@H](C)N(C)C(=O)[C@H](CCCCC)OC(=O)[C@@H](C)N(C)C(=O)[C@H](CCCCC)OC(=O)[C@@H](C)N(C)C1=O : 2.59 ×10⁻⁶ cm/s

----------
- System: PAMPA
- reported.conditions: Papp (x 10^-6 cm/s) – UV Detection / [row 13]; UV Detection
Below: a set of entries, each annotated with reported Papp.
Reply numerically in ×10⁻⁶ cm/s, unit not repeated.

{"compound": "CCCCC[C@@H]1OC(=O)[C@@H](C)N(C)C(=O)[C@H](CCCCC)OC(=O)[C@@H](C)N(C)C(=O)[C@H](CCCCC)OC(=O)[C@@H](C)N(C)C(=O)[C@H](CCCCC)OC(=O)[C@@H](C)N(C)C1=O [Compound C1.4, ent-verticilide]", "Papp [×10⁻⁶ cm/s]": 4.62}

Now turn to the next compound.
CCCCC[C@@H]1OC(=O)[C@@H](C)N(C)C(=O)[C@H](CCCCC)OC(=O)[C@@H](C)N(C)C(=O)[C@H](CCCCC)OC(=O)[C@@H](C)N(C)C1=O [Compound C1.3, ent-verticilide B1] yielded Papp of 3.78

----------
- System: PAMPA
- reported.conditions: Papp (x 10^-6 cm/s) – UV Detection / [row 11]; UV Detection
The molecules listed here are annotated with their Papp.
Give just the number in ×10⁻⁶ cm/s; leave the unit off.

Value of measured Papp for the entry CCCCC[C@@H]1OC(=O)[C@@H](C)N(C)C(=O)[C@H](CCCCC)OC(=O)[C@@H](C)N(C)C(=O)[C@H](CCCCC)OC(=O)[C@@H](C)N(C)C1=O [Compound C1.3, ent-verticilide B1] : 3.24

GET /value?item= CCCCC[C@@H]1OC(=O)[C@@H](C)N(C)C(=O)[C@H](CCCCC)OC(=O)[C@@H](C)N(C)C(=O)[C@H](CCCCC)OC(=O)[C@@H](C)N(C)C(=O)[C@H](CCCCC)OC(=O)[C@@H](C)N(C)C1=O [Compound C1.4, ent-verticilide] &field=Papp returns 4.05

FYI, the data here is from paper PMC11995216.
